Measurement type: melting point

Study these solved cases before continuing.
>  <Compound>
CC(C)ON=CCCNC(=O)c1ccc(-c2noc(C(F)(F)F)n2)cc1

>  <Value observed>
122 to 124 °C

$$$$
>  <Compound>
CCON=C(C)CNC(=O)c1ccc(-c2noc(C(F)(F)F)n2)cc1F

>  <Value observed>
120 to 122 °C

$$$$
>  <Compound>
CCO/N=C\C(C)NC(=O)c1ccc(-c2noc(C(F)(F)F)n2)cc1 (stereo not drawn)

>  <Value observed>
173 to 174 °C

$$$$
>  <Compound>
C#CCO/N=C\NC(=O)c1ccc(-c2noc(C(F)(F)F)n2)cc1

>  <Value observed>
114 to 119 °C

$$$$
>  <Compound>
CO/N=C(\C)C(NC(=O)c1ccc(-c2noc(C(F)(F)F)n2)cc1)OC (stereo not drawn)

>  <Value observed>
100.7 to 106.9 °C

$$$$

Dear colleague, I am looking for the recorded melting point of the following compound: CCON=C(C)CNC(=O)c1ccc(-c2noc(C(F)(F)F)n2)cc1
135 to 136 °C

Follow-up entry: C#CCO/N=C/CCNC(=O)c1ccc(-c2noc(C(F)(F)F)n2)cc1
89 to 91 °C

Follow-up entry: O=C(NCCC=NO)c1ccc(-c2noc(C(F)(F)F)n2)cc1
180 to 183 °C

Follow-up entry: O=C(NCC=NOCCF)c1ccc(-c2noc(C(F)(F)F)n2)cc1
145 to 146 °C
